Molecular target: T1, M14
T1 construct: also called PD1 mutant M14
Experiment: ELISA, 1 ug/ml

| Binder | OD490 |
| --- | --- |
| PD1-49A2 (antibody, V domains shown, scFv-phage in the screening ELISA; whole IgG in the other assays; also called Parent 49A2) VH: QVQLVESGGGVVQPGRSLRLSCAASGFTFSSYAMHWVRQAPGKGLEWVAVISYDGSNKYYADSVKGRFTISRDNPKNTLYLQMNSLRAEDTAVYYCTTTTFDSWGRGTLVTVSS VL: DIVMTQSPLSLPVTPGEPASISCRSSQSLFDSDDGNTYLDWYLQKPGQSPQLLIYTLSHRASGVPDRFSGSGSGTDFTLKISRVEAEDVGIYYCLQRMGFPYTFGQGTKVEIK | 3.9 |
| PD1-52E8 (antibody, V domains shown, scFv-phage in the screening ELISA; whole IgG in the other assays) VH: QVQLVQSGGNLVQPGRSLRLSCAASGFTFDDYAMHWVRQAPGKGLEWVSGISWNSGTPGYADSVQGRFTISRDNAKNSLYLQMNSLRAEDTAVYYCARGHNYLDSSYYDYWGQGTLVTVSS VL: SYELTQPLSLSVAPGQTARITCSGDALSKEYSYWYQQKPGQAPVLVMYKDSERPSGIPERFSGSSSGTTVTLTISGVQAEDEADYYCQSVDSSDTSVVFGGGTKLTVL | 2.6 |
| PD1-45D6 (antibody, V domains shown, scFv-phage in the screening ELISA; whole IgG in the other assays) VH: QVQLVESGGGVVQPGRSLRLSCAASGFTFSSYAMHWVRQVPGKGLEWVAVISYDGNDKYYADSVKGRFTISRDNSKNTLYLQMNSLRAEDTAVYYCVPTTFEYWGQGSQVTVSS VL: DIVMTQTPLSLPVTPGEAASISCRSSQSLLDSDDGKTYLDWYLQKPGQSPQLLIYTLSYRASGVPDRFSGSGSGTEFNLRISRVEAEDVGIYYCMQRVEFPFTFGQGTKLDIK | 3.9 |
| PD1-41C9 (antibody, V domains shown, scFv-phage in the screening ELISA; whole IgG in the other assays) VH: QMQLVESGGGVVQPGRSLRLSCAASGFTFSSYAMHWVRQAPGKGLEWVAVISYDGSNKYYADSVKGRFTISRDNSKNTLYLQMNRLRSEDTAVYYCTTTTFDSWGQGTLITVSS VL: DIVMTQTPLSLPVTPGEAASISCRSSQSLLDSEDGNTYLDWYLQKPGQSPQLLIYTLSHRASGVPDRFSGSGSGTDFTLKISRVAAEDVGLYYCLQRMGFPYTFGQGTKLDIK | 3.5 |

Data credit: patent US20190248900A1
